The values you see were collected from paper PMC11574364.

assay-target: RBMX2 (Homo sapiens, UniProt Q9Y388)
Sequence: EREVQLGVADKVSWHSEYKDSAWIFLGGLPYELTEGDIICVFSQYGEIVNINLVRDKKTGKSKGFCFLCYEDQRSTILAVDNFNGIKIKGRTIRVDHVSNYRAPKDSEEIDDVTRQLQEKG
method: protein domain microarray probed with biotinylated miRNA; Domain array: 20 mM Tris-HCl pH 7.4, 200 mM KCl, 0.2 mM EDTA, 0.05% NP40, 2 ug/ul heparin, overnight 4 C. ORF array: PBS pH 7.0 with RNase inhibitor, 100 ng RNA; high values mean tight binding
reported-conditions: ssRNA
endpoint: binding signal
# include the unit after the value

The examples below pair each entry with its known result.
item-sequence: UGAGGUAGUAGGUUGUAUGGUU
binding signal: 69.6 fluorescence intensity
--
item-sequence: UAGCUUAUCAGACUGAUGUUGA
binding signal: 21.4 fluorescence intensity
--
item-sequence: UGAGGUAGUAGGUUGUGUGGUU
binding signal: 111 fluorescence intensity

Consider the additional sequence presented here.
Lookup: Could you share which binding signal value was measured for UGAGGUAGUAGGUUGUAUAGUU ?
Found: 34.7 fluorescence intensity

====

assay-target: FIR (Homo sapiens)
Sequence (Q9UHX1 110-559): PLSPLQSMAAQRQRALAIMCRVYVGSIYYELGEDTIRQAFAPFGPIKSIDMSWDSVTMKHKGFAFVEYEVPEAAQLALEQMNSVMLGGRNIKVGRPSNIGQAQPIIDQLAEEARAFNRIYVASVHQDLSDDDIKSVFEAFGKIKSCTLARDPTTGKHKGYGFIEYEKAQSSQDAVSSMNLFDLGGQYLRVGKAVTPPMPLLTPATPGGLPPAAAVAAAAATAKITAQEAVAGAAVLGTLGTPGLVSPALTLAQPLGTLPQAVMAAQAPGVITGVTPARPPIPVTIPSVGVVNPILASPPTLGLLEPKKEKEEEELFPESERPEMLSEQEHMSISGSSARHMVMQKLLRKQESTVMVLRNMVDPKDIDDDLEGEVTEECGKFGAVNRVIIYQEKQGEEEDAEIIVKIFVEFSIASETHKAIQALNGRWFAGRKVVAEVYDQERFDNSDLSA
method: protein domain microarray probed with biotinylated miRNA; Domain array: 20 mM Tris-HCl pH 7.4, 200 mM KCl, 0.2 mM EDTA, 0.05% NP40, 2 ug/ul heparin, overnight 4 C. ORF array: PBS pH 7.0 with RNase inhibitor, 100 ng RNA; high values mean tight binding
reported-conditions: ssRNA
Everything with binding signal lower than 1000 fluorescence intensity is NO; everything else, including exactly 1000 fluorescence intensity, is YES.

// known answers, use as guide
item-sequence: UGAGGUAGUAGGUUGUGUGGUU
answer-label: YES

item-sequence: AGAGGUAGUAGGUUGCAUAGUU
answer-label: NO

item-sequence: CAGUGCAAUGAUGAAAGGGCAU
answer-label: NO

item-sequence: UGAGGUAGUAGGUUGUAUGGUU
answer-label: YES

item-sequence: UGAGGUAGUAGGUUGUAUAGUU
answer-label: NO

Lookup: Exam item: decide whether the reported binding signal for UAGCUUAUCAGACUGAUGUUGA is at least 1000 fluorescence intensity.
Found: YES

====

Quick reference for binding signal among some sequences
assay-target: ENOX2 (Homo sapiens, UniProt Q16206)
Sequence: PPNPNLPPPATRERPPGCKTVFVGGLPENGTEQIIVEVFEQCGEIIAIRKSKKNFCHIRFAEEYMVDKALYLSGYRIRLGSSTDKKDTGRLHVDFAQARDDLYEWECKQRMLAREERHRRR
method: protein domain microarray probed with biotinylated miRNA; Domain array: 20 mM Tris-HCl pH 7.4, 200 mM KCl, 0.2 mM EDTA, 0.05% NP40, 2 ug/ul heparin, overnight 4 C. ORF array: PBS pH 7.0 with RNase inhibitor, 100 ng RNA; high values mean tight binding
reported-conditions: ssRNA
Express your answer in fluorescence intensity, writing the number without its unit.

Before answering, review these 2 worked examples.
item-sequence: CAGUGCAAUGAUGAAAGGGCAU
assay-target: ENOX2 (Homo sapiens, UniProt Q16206)
binding signal (fluorescence intensity): 54.1

item-sequence: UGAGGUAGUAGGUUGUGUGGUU
assay-target: ENOX2 (Homo sapiens, UniProt Q16206)
binding signal (fluorescence intensity): 118

Lookup: Quick check: binding signal on ENOX2 (Homo sapiens, UniProt Q16206), item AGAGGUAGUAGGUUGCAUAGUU ?
Found: 77.1

Lookup: Input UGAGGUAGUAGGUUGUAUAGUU
Found: 20.7
